- TEST_PROTOCOL: Primary imaging screen for DUSP6 inhibitors that restore phospho-Erk in transfected HeLa cells, chemical complementation (AID 609)
- CONDITIONS_USED: HeLa MKP-3 transfected, phospho-Erk imaging KS statistic; measured here: cell density z-score; at 10 µM; cells stimulated with TPA for 15 min
Label yes when z-score is at or above 0.6; anything below gets no.

Example results:
- MOLECULE: "CC(C)C[C@H]1C(=O)N2CCC[C@H]2[C@]2(O)O[C@](NC(=O)[C@@H]3C=C4c5cccc6[nH]c(Br)c(c56)CC4N(C)C3)(C(C)C)C(=O)N12 (some centres not stated)"
  DISCRETE_LABEL: "no"
- MOLECULE: "COC(=O)c1ccc(N2C(=O)CC(N3CCN(C(=O)c4ccco4)CC3)C2=O)cc1 (configuration not stated)"
  DISCRETE_LABEL: "no"
- MOLECULE: "CN1CCN(C2=Nc3cc(Cl)ccc3Nc3ccccc32)CC1"
  DISCRETE_LABEL: "no"

### Prompt Would you say CC1(C)O[C@@H]2C[C@H]3[C@@H]4CCC5=CC(=O)C=C[C@]5(C)[C@@]4(F)[C@@H](O)C[C@]3(C)[C@]2(C(=O)CO)O1 shows z-score at minimum 0.6?
### Response yes

### Prompt Would you say CN1CC(=O)Nc2ccc(F)cc2C1=O shows z-score at minimum 0.6?
### Response no

### Prompt Would you say COc1ccc(C(=O)NCC(=O)n2nc(C)cc2C)cc1OC shows z-score at minimum 0.6?
### Response no

### Prompt Would you say COc1ccc(Cn2ccnc2)cc1Br shows z-score at minimum 0.6?
### Response no

### Prompt Would you say COc1cccc(C(=O)OCCN(C)C(C)(C)C)c1 shows z-score at minimum 0.6?
### Response no

### Prompt Would you say O=P(O)(c1ccccc1)c1ccccc1O shows z-score at minimum 0.6?
### Response no

### Prompt Would you say COc1ccc(CSc2nnc(C)n2N)cc1Br shows z-score at minimum 0.6?
### Response yes

### Prompt Would you say CC1(C)O[C@@H]2C[C@H]3[C@@H]4C[C@H](F)C5=CC(=O)C=C[C@]5(C)[C@@]4(F)[C@@H](O)C[C@]3(C)[C@]2(C(=O)CO)O1 shows z-score at minimum 0.6?
### Response yes

### Prompt Would you say CCOc1ccc2nc(S(N)(=O)=O)sc2c1 shows z-score at minimum 0.6?
### Response yes

### Prompt Would you say Cc1cc(N/C=C/C(=O)c2cccc3ccccc23)no1 shows z-score at minimum 0.6?
### Response no

### Prompt Would you say COc1ccc2c(c1)c(CC(=O)O)c(C)n2C(=O)c1ccc(Cl)cc1 shows z-score at minimum 0.6?
### Response yes

---

Overview of reported fluorescence slope across a group of molecules:
- TEST_TARGET: Voltage-gated potassium channel subunit beta-2 (Rattus norvegicus) (UniProt P62483)
- Sequence (P62483 whole entry, looked up): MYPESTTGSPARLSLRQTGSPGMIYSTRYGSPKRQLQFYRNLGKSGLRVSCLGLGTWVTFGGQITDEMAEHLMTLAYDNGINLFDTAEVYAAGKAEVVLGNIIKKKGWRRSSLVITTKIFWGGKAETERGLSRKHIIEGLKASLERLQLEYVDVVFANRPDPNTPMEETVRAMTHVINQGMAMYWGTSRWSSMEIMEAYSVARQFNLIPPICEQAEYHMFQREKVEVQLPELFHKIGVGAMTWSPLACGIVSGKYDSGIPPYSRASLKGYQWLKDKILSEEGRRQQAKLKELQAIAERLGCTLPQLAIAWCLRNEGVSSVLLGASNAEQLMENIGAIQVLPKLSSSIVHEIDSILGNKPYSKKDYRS
- TEST_PROTOCOL: inhibitors of rat Kvbeta2 reductase activity – biochemical, NADPH fluorescence, primary screen (AID 622);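 also: slope of raw intensity against log time taken from 70 to 1610 s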
- CONDITIONS_USED: recombinant KvBeta, 4-cyanobenzaldehyde reduction, at 10 µM, stronger effect = higher value
The source made the active and inactive calls.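 How the source made its calls: active means fluorescence slope higher than the sample average by over 3 SD (cut at about -0.22 in these data, passing the limit was not always enough); inactive means the rest.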

Field: example entries. Status: answers known.
- STRUCTURE_SMILES_STRING: "C=C(c1ccc(O)cc1)c1ccc(O)cc1"
  TEST_TARGET: "Voltage-gated potassium channel subunit beta-2 (Rattus norvegicus) (UniProt P62483)"
  fluorescence slope: "-0.37 (inactive)"
- STRUCTURE_SMILES_STRING: "Cc1ccc(S(=O)(=O)Cc2ccc(C(=O)NCCCN3CCN(C)CC3)o2)cc1"
  TEST_TARGET: "Voltage-gated potassium channel subunit beta-2 (Rattus norvegicus) (UniProt P62483)"
  fluorescence slope: "-0.517 (inactive)"

Let's switch to this molecule now.
### Prompt I am curious: what fluorescence slope value has been reported for COc1ccc(OCC(=O)N2CCN(C(=O)c3cccs3)CC2)cc1 ?
### Response -0.57 (inactive)

Every entry's value here was drawn from PubChem BioAssay.
